# System: Staphylococcus aureus
# assaySummary: Antibacterial activity against methicillin-resistant Staphylococcus aureus clinical isolate 4 incubated for 16 to 18 hrs by CLSI-based microbroth dilution method
# Format: functional
# recordedConditions: time 16-18 hrs

{"sampleSmiles": "COc1cc2c(c(O)c1C(=O)/C=C/c1ccc(OCCCC[N+](C)(C)CC(=O)N(CC(C)C)CC(C)C)cc1)C=CC(C)(C)O2.[Br-]", "MIC": "4 µg/mL"}
{"sampleSmiles": "CCCCCNC(=O)C[N+](C)(C)CCCOc1ccc(/C=C/C(=O)c2c(OC)cc3c(c2O)C=CC(C)(C)O3)cc1.[Br-]", "MIC": "4 µg/mL"}
{"sampleSmiles": "CCCCNC(=O)C[N+](C)(C)CCCCOc1ccc(/C=C/C(=O)c2c(OC)cc3c(c2O)C=CC(C)(C)O3)cc1.[Br-]", "MIC": "2 µg/mL"}
{"sampleSmiles": "COc1cc2c(c(O)c1C(=O)/C=C/c1ccc(OCCCCC[N+](C)(C)CC(=O)N(CC(C)C)CC(C)C)cc1)C=CC(C)(C)O2.[Br-]", "MIC": "2 µg/mL"}
{"sampleSmiles": "CCCCCCNC(=O)C[N+](C)(C)CCCCOc1ccc(/C=C/C(=O)c2c(OC)cc3c(c2O)C=CC(C)(C)O3)cc1.[Br-]", "MIC": "8 µg/mL"}
{"sampleSmiles": "CCCCN(CCCC)C(=O)C[N+](C)(C)CCCCCOc1ccc(/C=C/C(=O)c2c(OC)cc3c(c2O)C=CC(C)(C)O3)cc1.[Br-]", "MIC": "8 µg/mL"}
{"sampleSmiles": "COc1cc2c(c(O)c1C(=O)/C=C/c1ccc(OCCCC[N+](C)(C)CC(=O)N3CCOCC3)cc1)C=CC(C)(C)O2.[Br-]", "MIC": "8 µg/mL"}

* * *

# System: Staphylococcus aureus
# assaySummary: Antibacterial activity against methicillin-resistant Staphylococcus aureus clinical isolate 4 incubated for 16 to 18 hrs by CLSI-based microbroth dilution method
# Format: functional
# recordedConditions: time 16-18 hrs

{"sampleSmiles": "COc1cc2c(c(O)c1C(=O)/C=C/c1ccc(OCCCCC[N+](C)(C)CC(=O)N(C(C)C)C(C)C)cc1)C=CC(C)(C)O2.[Br-]", "assayedSystem": "Staphylococcus aureus", "MIC / µg/mL": 1}
{"sampleSmiles": "CCCN(CCC)C(=O)C[N+](C)(C)CCCCOc1ccc(/C=C/C(=O)c2c(OC)cc3c(c2O)C=CC(C)(C)O3)cc1.[Br-]", "assayedSystem": "Staphylococcus aureus", "MIC / µg/mL": 2}
{"sampleSmiles": "CCCCN(CCCC)C(=O)C[N+](C)(C)CCCCOc1ccc(/C=C/C(=O)c2c(OC)cc3c(c2O)C=CC(C)(C)O3)cc1.[Br-]", "assayedSystem": "Staphylococcus aureus", "MIC / µg/mL": 2}
{"sampleSmiles": "CCCCCNC(=O)C[N+](C)(C)CCCCCOc1ccc(/C=C/C(=O)c2c(OC)cc3c(c2O)C=CC(C)(C)O3)cc1.[Br-]", "assayedSystem": "Staphylococcus aureus", "MIC / µg/mL": 2}
{"sampleSmiles": "COc1cc2c(c(O)c1C(=O)/C=C/c1ccc(OCCC[N+](C)(C)CC(=O)N(C(C)C)C(C)C)cc1)C=CC(C)(C)O2.[Br-]", "assayedSystem": "Staphylococcus aureus", "MIC / µg/mL": 2}
{"sampleSmiles": "CCCCCCNC(=O)C[N+](C)(C)CCCCCOc1ccc(/C=C/C(=O)c2c(OC)cc3c(c2O)C=CC(C)(C)O3)cc1.[Br-]", "assayedSystem": "Staphylococcus aureus", "MIC / µg/mL": 2}
{"sampleSmiles": "COc1cc2c(c(O)c1C(=O)/C=C/c1ccc(OCCCC[N+](C)(C)CC(=O)N3CCSCC3)cc1)C=CC(C)(C)O2.[Br-]", "assayedSystem": "Staphylococcus aureus", "MIC / µg/mL": 4}

* * *

# assaySummary: Hemolytic activity in sheep erythrocytes incubated for 1 hr by absorbance based analysis
# Assay type: toxicity, cell-based, Ovis aries, Erythrocyte
Listed here: items and their measured HC50 at 1 h.
recordedEndpoint: HC50 at 1 h (µg/mL)

{"sampleSmiles": "CCCNC(=O)C[N+](C)(C)CCCCOc1ccc(/C=C/C(=O)c2c(OC)cc3c(c2O)C=CC(C)(C)O3)cc1.[Br-]", "valueQualifier": "=", "numericValue": 410}
{"sampleSmiles": "CCCCCNC(=O)C[N+](C)(C)CCCOc1ccc(/C=C/C(=O)c2c(OC)cc3c(c2O)C=CC(C)(C)O3)cc1.[Br-]", "valueQualifier": "=", "numericValue": 169}
{"sampleSmiles": "CCCCCCNC(=O)C[N+](C)(C)CCCCOc1ccc(/C=C/C(=O)c2c(OC)cc3c(c2O)C=CC(C)(C)O3)cc1.[Br-]", "valueQualifier": "=", "numericValue": 938}
{"sampleSmiles": "COc1cc2c(c(O)c1C(=O)/C=C/c1ccc(OCCCCC[N+](C)(C)CC(=O)N3CCOCC3)cc1)C=CC(C)(C)O2.[Br-]", "valueQualifier": ">", "numericValue": 1280}

* * *

# System: Staphylococcus aureus
# assaySummary: Antibacterial activity against methicillin-resistant Staphylococcus aureus clinical isolate 4 incubated for 16 to 18 hrs by CLSI-based microbroth dilution method
# Format: functional
# recordedConditions: time 16-18 hrs
// values below are reported MIC

{"sampleSmiles": "CCCNC(=O)C[N+](C)(C)CCCOc1ccc(/C=C/C(=O)c2c(OC)cc3c(c2O)C=CC(C)(C)O3)cc1.[Br-]", "unitsLabel": "µg/mL", "MIC": 4}
{"sampleSmiles": "CCCN(CCC)C(=O)C[N+](C)(C)CCCCCOc1ccc(/C=C/C(=O)c2c(OC)cc3c(c2O)C=CC(C)(C)O3)cc1.[Br-]", "unitsLabel": "µg/mL", "MIC": 2}
{"sampleSmiles": "COc1cc2c(c(O)c1C(=O)/C=C/c1ccc(OCCC[N+](C)(C)CC(=O)N3CCOCC3)cc1)C=CC(C)(C)O2.[Br-]", "unitsLabel": "µg/mL", "MIC": 16}
{"sampleSmiles": "CCCCNC(=O)C[N+](C)(C)CCCOc1ccc(/C=C/C(=O)c2c(OC)cc3c(c2O)C=CC(C)(C)O3)cc1.[Br-]", "unitsLabel": "µg/mL", "MIC": 2}

* * *

The reader will find reported MIC values listed item by item below.
# Tested on: Staphylococcus aureus
# assaySummary: Antibacterial activity against methicillin-resistant Staphylococcus aureus clinical isolate 2 incubated for 16 to 18 hrs by CLSI-based microbroth dilution method
# Assay type: functional
# recordedConditions: time 16-18 hrs
recordedEndpoint: MIC

{"sampleSmiles": "CCCCCCNC(=O)C[N+](C)(C)CCCCCOc1ccc(/C=C/C(=O)c2c(OC)cc3c(c2O)C=CC(C)(C)O3)cc1.[Br-]", "recordedEndpoint": "MIC", "result": "2 µg/mL"}
{"sampleSmiles": "COc1cc2c(c(O)c1C(=O)/C=C/c1ccc(OCCC[N+](C)(C)CC(=O)N3CCOCC3)cc1)C=CC(C)(C)O2.[Br-]", "recordedEndpoint": "MIC", "result": "8 µg/mL"}
{"sampleSmiles": "CCCNC(=O)C[N+](C)(C)CCCCCOc1ccc(/C=C/C(=O)c2c(OC)cc3c(c2O)C=CC(C)(C)O3)cc1.[Br-]", "recordedEndpoint": "MIC", "result": "8 µg/mL"}
{"sampleSmiles": "COc1cc2c(c(O)c1C(=O)/C=C/c1ccc(OCCCCC[N+](C)(C)CC(=O)N3CCSCC3)cc1)C=CC(C)(C)O2.[Br-]", "recordedEndpoint": "MIC", "result": "4 µg/mL"}
{"sampleSmiles": "CCCN(CCC)C(=O)C[N+](C)(C)CCCCOc1ccc(/C=C/C(=O)c2c(OC)cc3c(c2O)C=CC(C)(C)O3)cc1.[Br-]", "recordedEndpoint": "MIC", "result": "2 µg/mL"}
{"sampleSmiles": "CCCCCNC(=O)C[N+](C)(C)CCCOc1ccc(/C=C/C(=O)c2c(OC)cc3c(c2O)C=CC(C)(C)O3)cc1.[Br-]", "recordedEndpoint": "MIC", "result": "4 µg/mL"}
{"sampleSmiles": "CCCCNC(=O)C[N+](C)(C)CCCCOc1ccc(/C=C/C(=O)c2c(OC)cc3c(c2O)C=CC(C)(C)O3)cc1.[Br-]", "recordedEndpoint": "MIC", "result": "2 µg/mL"}

* * *

// HC50 at 1 h lookup, one value per entry
# assaySummary: Hemolytic activity in sheep erythrocytes incubated for 1 hr by absorbance based analysis
# Format: toxicity, cell-based, Ovis aries, Erythrocyte
recordedEndpoint: HC50 at 1 h (µg/mL)

{"compound": "COc1cc2c(c(O)c1C(=O)/C=C/c1ccc(OCCCCC[N+](C)(C)CC(=O)N(C(C)C)C(C)C)cc1)C=CC(C)(C)O2.[Br-]", "recordedEndpoint": "HC50 at 1 h", "valueQualifier": "=", "numericValue": 229}
{"compound": "CCCCNC(=O)C[N+](C)(C)CCCCOc1ccc(/C=C/C(=O)c2c(OC)cc3c(c2O)C=CC(C)(C)O3)cc1.[Br-]", "recordedEndpoint": "HC50 at 1 h", "valueQualifier": "=", "numericValue": 220}
{"compound": "COc1cc(O)c(CC=C(C)C)c(O)c1C(=O)/C=C/c1ccc(O)cc1 [XANTHOHUMOL]", "recordedEndpoint": "HC50 at 1 h", "valueQualifier": "=", "numericValue": 196}
{"compound": "CCCCCNC(=O)C[N+](C)(C)CCCCOc1ccc(/C=C/C(=O)c2c(OC)cc3c(c2O)C=CC(C)(C)O3)cc1.[Br-]", "recordedEndpoint": "HC50 at 1 h", "valueQualifier": "=", "numericValue": 83.4}
{"compound": "COc1cc2c(c(O)c1C(=O)/C=C/c1ccc(O)cc1)C=CC(C)(C)O2 [XANTHOHUMOL C]", "recordedEndpoint": "HC50 at 1 h", "valueQualifier": "=", "numericValue": 222}
{"compound": "CCCNC(=O)C[N+](C)(C)CCCCCOc1ccc(/C=C/C(=O)c2c(OC)cc3c(c2O)C=CC(C)(C)O3)cc1.[Br-]", "recordedEndpoint": "HC50 at 1 h", "valueQualifier": "=", "numericValue": 974}
{"compound": "CCCN(CCC)C(=O)C[N+](C)(C)CCCOc1ccc(/C=C/C(=O)c2c(OC)cc3c(c2O)C=CC(C)(C)O3)cc1.[Br-]", "recordedEndpoint": "HC50 at 1 h", "valueQualifier": "=", "numericValue": 118}
{"compound": "CCCCCNC(=O)C[N+](C)(C)CCCCCOc1ccc(/C=C/C(=O)c2c(OC)cc3c(c2O)C=CC(C)(C)O3)cc1.[Br-]", "recordedEndpoint": "HC50 at 1 h", "valueQualifier": "=", "numericValue": 301}
{"compound": "COc1cc2c(c(O)c1C(=O)/C=C/c1ccc(OCCC[N+](C)(C)CC(=O)N3CCOCC3)cc1)C=CC(C)(C)O2.[Br-]", "recordedEndpoint": "HC50 at 1 h", "valueQualifier": ">", "numericValue": 1280}
{"compound": "COc1cc2c(c(O)c1C(=O)/C=C/c1ccc(OCCCC[N+](C)(C)CC(=O)N3CCSCC3)cc1)C=CC(C)(C)O2.[Br-]", "recordedEndpoint": "HC50 at 1 h", "valueQualifier": "=", "numericValue": 705}
{"compound": "CCCN(CCC)C(=O)C[N+](C)(C)CCCCOc1ccc(/C=C/C(=O)c2c(OC)cc3c(c2O)C=CC(C)(C)O3)cc1.[Br-]", "recordedEndpoint": "HC50 at 1 h", "valueQualifier": "=", "numericValue": 338}
{"compound": "CCCCNC(=O)C[N+](C)(C)CCCCCOc1ccc(/C=C/C(=O)c2c(OC)cc3c(c2O)C=CC(C)(C)O3)cc1.[Br-]", "recordedEndpoint": "HC50 at 1 h", "valueQualifier": "=", "numericValue": 826}
{"compound": "COc1cc2c(c(O)c1C(=O)/C=C/c1ccc(OCCCC[N+](C)(C)CC(=O)N(CC(C)C)CC(C)C)cc1)C=CC(C)(C)O2.[Br-]", "recordedEndpoint": "HC50 at 1 h", "valueQualifier": "=", "numericValue": 333}
{"compound": "CCCCCCNC(=O)C[N+](C)(C)CCCCCOc1ccc(/C=C/C(=O)c2c(OC)cc3c(c2O)C=CC(C)(C)O3)cc1.[Br-]", "recordedEndpoint": "HC50 at 1 h", "valueQualifier": "=", "numericValue": 245}
{"compound": "CCCCN(CCCC)C(=O)C[N+](C)(C)CCCCCOc1ccc(/C=C/C(=O)c2c(OC)cc3c(c2O)C=CC(C)(C)O3)cc1.[Br-]", "recordedEndpoint": "HC50 at 1 h", "valueQualifier": "=", "numericValue": 409}
